# Species on record: Bos taurus
# method: Inhibition of calf brain tubulin polymerization at 30 uM measured for 6000 secs by spectrophotometric method
The source made the active and inactive calls. The rule behind the calls is not given here.
Choose the fitting class; nothing outside active, inactive is accepted.

COc1ccc2c(c1)CCC(C(=O)c1ccc(OC)c(OC)c1)C2 (racemic)
inactive
COc1ccc2c(c1)CCC(C(=O)c1ccc(OC)c(OC)c1OC)C2 (racemic)
active
COc1ccc2c(c1N)CCC(C(=O)c1ccc(OC)c(OC)c1OC)C2 (racemic)
active
COc1ccc(/C=C(\C)C(=O)c2cc(OC)c3c(c2)OCO3)cc1N
active
COc1cc([C@@H]2c3cc4c(cc3[C@H](O)[C@H]3COC(=O)[C@H]23)OCO4)cc(OC)c1OC
active

Ask: Identify the outcome logged in this assay for the molecule shown: COc1ccc(C(=O)C2CCc3c(ccc(OC)c3[N+](=O)[O-])C2)c(OC)c1OC (racemic)
Reply: active

###

Can you tell me pIC50 for the items I'm about to list?
# Test system: CCRF-CEM
# method: Antiproliferative activity against human CEM cells after 96 hrs by coulter counting method
# Assay type: functional, cell-based
Answers are plain numbers, as −log10 of the molar value.

COc1ccc2c(c1N)CCC(C(=O)c1ccc(OC)c(OC)c1OC)C2 (racemic)
7.66
COc1ccc2c(c1)CCC(C(=O)c1ccc(OC)c(OC)c1OC)C2 (racemic)
6.77
COc1ccc(/C=C\c2cc(OC)c(OC)c(OC)c2)cc1OP(=O)(O)O [FOSBRETABULIN DISODIUM]
7.96
COc1ccc2c(c1)CCC(C(=O)c1ccc(OC)c(OC)c1)C2 (racemic)
3.66
COc1cc2c(cc1N)CC(C(=O)c1ccc(OC)c(OC)c1OC)CC2 (racemic)
6.32
COc1ccc2c(c1)CCC(C(=O)c1ccc(OC)c(OC)c1O)C2 (racemic)
4.42
COc1ccc2c(c1)CCC(C(=O)c1ccc(OC)c3c1OCO3)C2 (racemic)
4.41
COc1ccc(C(=O)C2CCc3c(ccc(OC)c3[N+](=O)[O-])C2)c(OC)c1OC (racemic)
6.07

We now examine a further compound.
Ask: Please report the recorded pIC50 for COc1ccc(C(=O)C2CCc3c(ccc(OC)c3N)C2)cc1OC (racemic) .
Reply: 5.20

###

# Tested on: HeLa
# method: Antiproliferative activity against human HeLa cells
# Format: functional, cell-based
assay-metric: IC50

Ask: Quick check: IC50 of COc1ccc(/C=C(\C)C(=O)c2cc(OC)c3c(c2)OCO3)cc1N ?
Reply: 3.9 nM

###

# Test system: L1210
# method: Antiproliferative activity against mouse L1210 cells after 96 hrs by coulter counting method
# Assay type: functional, cell-based
# run-parameters: L1210, 96 h
Hi there, I'd appreciate the recorded pIC50 for every entry that follows.
Give bare numbers, as −log10 of the molar value.

Reference set, count: 3
COc1ccc2c(c1N)CCC(C(=O)c1ccc(OC)c(OC)c1OC)C2 (racemic)
7.57
COc1ccc(C(=O)C2CCc3c(ccc(OC)c3N)C2)cc1OC (racemic)
4.28
COc1ccc(C(=O)C2CCc3c(ccc(OC)c3[N+](=O)[O-])C2)c(OC)c1OC (racemic)
5.38

Below are 2 compounds. Give each one its pIC50.
1. COc1cc2c(cc1N)CC(C(=O)c1ccc(OC)c(OC)c1OC)CC2 (racemic)
2. COc1ccc2c(c1)CCC(C(=O)c1ccc(OC)c(OC)c1O)C2 (racemic)

Reply:
6.07
4.12

For each entry beneath this line, provide reported pIC50.
1. COc1ccc2c(c1)CCC(C(=O)c1ccc(OC)c3c1OCO3)C2 (racemic)
2. COc1ccc(/C=C(\C)C(=O)c2cc(OC)c3c(c2)OCO3)cc1N
3. COc1ccc(/C=C\c2cc(OC)c(OC)c(OC)c2)cc1OP(=O)(O)O [FOSBRETABULIN DISODIUM]
4. COc1ccc2c(c1)CCC(C(=O)c1ccc(OC)c(OC)c1OC)C2 (racemic)

Reply:
[3.80, 9.00, 8.68, 6.62]
